- Test system: A549
- measurement protocol: Anticancer activity against human A549 cells by MTT assay
- Type: functional, cell-based
- run conditions: Homo sapiens, A549; read-out: IC50
Sorting guide: entries reporting IC50 beneath 80 µM go in the Met pile, the rest go in the Not met pile.

- smiles str: "CC1(C)CCc2c(ccc(C(=O)/C=C/c3ccc(OCc4cn(-c5ccc(Br)cc5)nn4)cc3)c2O)O1"
  experimental target: "A549"
  assigned label: "Not met"
- smiles str: "COc1cccc2c1C(=O)c1c(O)c3c(c(O)c1C2=O)C[C@@](O)(C(=O)CO)C[C@@H]3O[C@H]1C[C@H](N)[C@H](O)[C@H](C)O1"
  experimental target: "A549"
  assigned label: "Met"
- smiles str: "CC1(C)CCc2c(ccc(C(=O)/C=C/c3ccc(OCc4cn(Cc5ccc([N+](=O)[O-])cc5)nn4)cc3)c2O)O1"
  experimental target: "A549"
  assigned label: "Met"
- smiles str: "Cc1c(-n2cc(COc3ccc(/C=C/C(=O)c4cc5c(cc4O)OC(C)(C)CC5)cc3)nn2)cccc1[N+](=O)[O-]"
  experimental target: "A549"
  assigned label: "Met"
- smiles str: "CC1(C)CCc2cc(C(=O)/C=C/c3ccc(OCc4cn(Cc5ccc([N+](=O)[O-])cc5)nn4)cc3)c(O)cc2O1"
  experimental target: "A549"
  assigned label: "Met"
- smiles str: "CCc1ccccc1-n1cc(COc2ccc(/C=C/C(=O)c3ccc4c(c3O)CCC(C)(C)O4)cc2)nn1"
  experimental target: "A549"
  assigned label: "Not met"
- smiles str: "CC(=O)c1ccc(-n2cc(COc3ccc(/C=C/C(=O)c4cc5c(cc4O)OC(C)(C)CC5)cc3)nn2)cc1"
  experimental target: "A549"
  assigned label: "Met"
- smiles str: "CC(=O)c1ccc(-n2cc(COc3ccc(/C=C/C(=O)c4ccc5c(c4O)CCC(C)(C)O5)cc3)nn2)cc1"
  experimental target: "A549"
  assigned label: "Not met"
- smiles str: "CCCCCCCCn1cc(COc2ccc(/C=C/C(=O)c3cc4c(cc3O)OC(C)(C)CC4)cc2)nn1"
  experimental target: "A549"
  assigned label: "Met"
- smiles str: "CCCCCn1cc(COc2ccc(/C=C/C(=O)c3cc4c(cc3O)OC(C)(C)CC4)cc2)nn1"
  experimental target: "A549"
  assigned label: "Not met"

Next item in the queue.
(Q) Lab log: compare recorded IC50 with 80 µM; is it strictly lower for COc1ccc(-n2cc(COc3ccc(/C=C/C(=O)c4cc5c(cc4O)OC(C)(C)CC5)cc3)nn2)c([N+](=O)[O-])c1 ?
(A) Not met
